System: Saccharomyces cerevisiae
Assay: protein stability index of tFT-peptide fusion (C-terminal peptide) (PSI (0-1 scale)); higher = more stable (slower turnover);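 also: PSI is a weighted mean of sequencing reads over stability bins, variants kept only with over 10 reads, mCherry proximal and sfGFP distal, peptide attached via GGGS linker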
Details: genetic background: wild type; temperature: 37 C
Recorded measurements of protein stability index, one per entry
test_readout: protein stability index

seq_string=QVVWAVPRICLV quantitative_result=0.505
seq_string=RGVRALFLLLSF quantitative_result=0.45
seq_string=FLACYSSFLFVS quantitative_result=0.136
seq_string=GCSVSLCCVFVV quantitative_result=0.433
seq_string=VAWFFFAYAFFM quantitative_result=0.407
seq_string=VVFLLGPLVCGG quantitative_result=0.513
seq_string=VLRFVYDLVSAL quantitative_result=0.435

* * *

Test system: Saccharomyces cerevisiae
Assay: protein stability index of tFT-peptide fusion (C-terminal peptide) (PSI (0-1 scale)); higher = more stable (slower turnover)
Details: genetic background: wild type; temperature: 30 C
The threshold is inclusive: protein stability index of exactly 0.7 counts as YES; values below receive NO.

seq_string=LAPTPLAPSPPP assigned_class=YES
seq_string=APTPPPVLLTPP assigned_class=NO
seq_string=HTPPAPLPSSPH assigned_class=YES
seq_string=RILVFCPSSFGL assigned_class=NO
seq_string=PPTPLAASPRPS assigned_class=YES
seq_string=VVADNGASGWAW assigned_class=YES
seq_string=VSFCDVEVRFFV assigned_class=NO
seq_string=AWRGLAPRFVLT assigned_class=NO
seq_string=GMLCRAGPVRNV assigned_class=YES
seq_string=SILWRCEEEIRR assigned_class=YES
seq_string=KKSRLNRIVMRH assigned_class=NO
seq_string=FPFSDFVFLFCF assigned_class=NO
seq_string=GRWAFFTWLRWS assigned_class=NO
seq_string=GGCAAGVGRLAV assigned_class=NO
seq_string=PPLTPSPPRSFP assigned_class=NO
seq_string=KKIQKKKKLIPQ assigned_class=YES
seq_string=SLILRHLSPPTP assigned_class=YES
seq_string=RCPVFRCITGGL assigned_class=NO
seq_string=VIYIEYIGRNFI assigned_class=NO
seq_string=RGNPLLWHSSPR assigned_class=NO
seq_string=DDFPNKHVEPKA assigned_class=NO
seq_string=PSLPPPRRPLSP assigned_class=NO

* * *

System: Saccharomyces cerevisiae
Experiment: protein stability index of tFT-peptide fusion (C-terminal peptide) (PSI (0-1 scale)); higher = more stable (slower turnover)
Conditions: genetic background: wild type; temperature: 30 C
Recorded measurements of protein stability index, one per entry
test_readout: protein stability index

seq_string=LPAPLLSPPRHF result=0.746
seq_string=SGTFACCLGVCL result=0.681
seq_string=GWSVWFGLGGVW result=0.689
seq_string=EGGPRTGGRGSR result=0.67
seq_string=RVIPRTRISLLS result=0.575
seq_string=GGRPVGRRRPGA result=0.671
seq_string=RGSGEVVLFGVG result=0.671
seq_string=GGLGSHWDCDGL result=0.734
seq_string=CSSVGGYGGFEV result=0.616
seq_string=WTRAHWFFQFFV result=0.171
seq_string=VKENLCLLWVYR result=0.562
seq_string=AHFSRRCKGLFG result=0.741
seq_string=LRFGGWFLIGLR result=0.583
seq_string=SLYPPPAPRASP result=0.773
seq_string=RPTSPCPNHRLE result=0.667
seq_string=GSPCPIVLICGL result=0.504
seq_string=LAPSPPPPPLPL result=0.677
seq_string=RKLNRKEKLQLT result=0.646
seq_string=PIGLTCPASSVL result=0.692
seq_string=SSPLPLPLHPPP result=0.715
seq_string=PSLPPSPISPPH result=0.588
seq_string=GAPTRSYGERKR result=0.647
seq_string=LASLVANSRNSL result=0.798

Recorded values, source the supplement of paper PMC10724198.
